# Assay Details: Cmax in brain of male C57BL6 mouse at 3 mg/kg, po
# Type: ADME, organism-based
Property: Cmax; scope: individual molecules
Reply with just the number (in ng/mL).

{"Smiles Entry": "CN(C)CCc1c[nH]c2cccc(O)c12", "Cmax / ng/mL": 1340}

If you can, please state the reported Cmax value of CCCOc1cc(CCN)c(OC)cc1Br .
1850

----------
# Assay Details: AUC (infinity) in plasma of male C57BL6 mouse at 3 mg/kg, po
# Format: ADME, organism-based
Measured Parameter: AUC(0-inf) (ng·h/mL)
Reply with just the number (in ng·h/mL).

{"Smiles Entry": "CN(C)CCc1c[nH]c2cccc(O)c12", "AUC(0-inf), ng·h/mL": 1140}

Next compound, please.
If you can, please state the reported AUC(0-inf) value of CCCOc1cc(CCN)c(OC)cc1Br .
291
